- SUBJECT OF TEST: PDE-II (Homo sapiens)
- Sequence (O00408 whole entry): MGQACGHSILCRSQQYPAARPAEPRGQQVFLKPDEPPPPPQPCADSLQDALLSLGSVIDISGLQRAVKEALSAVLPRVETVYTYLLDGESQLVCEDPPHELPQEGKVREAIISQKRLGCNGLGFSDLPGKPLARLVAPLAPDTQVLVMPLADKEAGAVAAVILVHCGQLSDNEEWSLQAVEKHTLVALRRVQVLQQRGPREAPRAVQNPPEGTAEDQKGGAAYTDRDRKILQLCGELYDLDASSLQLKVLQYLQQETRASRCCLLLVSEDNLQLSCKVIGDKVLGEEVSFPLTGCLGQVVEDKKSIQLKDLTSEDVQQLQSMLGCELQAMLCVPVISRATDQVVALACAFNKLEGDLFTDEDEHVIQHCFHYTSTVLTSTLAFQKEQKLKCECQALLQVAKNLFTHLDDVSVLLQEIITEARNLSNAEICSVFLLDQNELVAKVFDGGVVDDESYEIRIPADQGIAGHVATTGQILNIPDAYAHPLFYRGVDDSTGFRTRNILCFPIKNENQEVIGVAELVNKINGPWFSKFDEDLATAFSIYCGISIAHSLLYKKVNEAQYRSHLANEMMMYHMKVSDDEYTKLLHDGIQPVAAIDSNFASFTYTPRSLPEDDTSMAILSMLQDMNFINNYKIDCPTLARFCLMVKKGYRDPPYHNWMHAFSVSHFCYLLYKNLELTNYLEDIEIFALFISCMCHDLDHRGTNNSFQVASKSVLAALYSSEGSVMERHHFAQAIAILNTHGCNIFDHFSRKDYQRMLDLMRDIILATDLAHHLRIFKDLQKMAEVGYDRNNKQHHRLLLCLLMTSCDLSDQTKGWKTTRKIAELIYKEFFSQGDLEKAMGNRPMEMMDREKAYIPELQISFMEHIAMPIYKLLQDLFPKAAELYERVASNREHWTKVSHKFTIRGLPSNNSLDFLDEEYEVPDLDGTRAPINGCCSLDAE
pIC50: −log10 of the molar value.

MOLECULE	SUBJECT OF TEST	pIC50
CCCc1nn(C)c2c(=O)[nH]c(-c3cc(S(=O)(=O)N4CC[N+](C)([O-])CC4)ccc3OCC)nc12 [Sildenafil-N-oxide]	PDE-II (Homo sapiens)	< 5.00

----------
- EXPERIMENT SUMMARY: Plasma pharmacokinetics of sildenafil and its N-oxide
- Type: in vivo
- MEASUREMENT SETUP: male, NMRI, mouse, po; mice, plasma, p.o. 10 mg/kg, Tend = ∞
# AUC(0-inf) listing for each entry below

COMPOUND	AUC(0-inf) / ng·h/mL
CCCc1nn(C)c2c(=O)[nH]c(-c3cc(S(=O)(=O)N4CC[N+](C)([O-])CC4)ccc3OCC)nc12 [Sildenafil-N-oxide]	18.8
CCCc1nn(C)c2c(=O)[nH]c(-c3cc(S(=O)(=O)N4CCN(C)CC4)ccc3OCC)nc12 [Sildenafil, reference compound]	670

All values here come from patent US20090005395A1.
